Test system: homologous recombination in BxPC-3 cells
Test: HR Quick Assay (HR-QA)
Format: cell-based
Settings: Homo sapiens, multiple-dose HR-QA
metric: IC50 (µM)
Write the number in µM without appending the unit.

Fill in the blank: the reported IC50 of `COc1ccc2nc(-c3ccc(-c4ccccc4)o3)cc(C(=O)O)c2c1` is ____.
21.7
